Each recorded value in this set is attributed to ChEMBL document CHEMBL2093137.

# % Inhibition per entry
tested on: Schistosoma mansoni; assay: WHO-TDR: Schistosomiasis; format: functional; parameters: concentration or dose not given beside the values
observable: % Inhibition (%)

[[record]]
molecule = "O=C(Nc1nc(-c2ccccn2)cs1)c1ccc2c(c1)CCCC2"
observable = "% Inhibition"
numeric_readout = 12.5

[[record]]
molecule = "COc1cccc(C(=O)N(CCCn2ccnc2)c2nc3c(C)c(C)ccc3s2)c1OC"
observable = "% Inhibition"
numeric_readout = 0

[[record]]
molecule = "O=C(Nc1ccc(SCC(=O)N2CCc3ccccc32)nn1)c1ccccc1F"
observable = "% Inhibition"
numeric_readout = 0

[[record]]
molecule = "Cc1ccc(Cn2c(CO)cnc2SCC(=O)Nc2cccc3ccccc23)cc1"
observable = "% Inhibition"
numeric_readout = 0

[[record]]
molecule = "O=C(Nc1nnc(SCc2ccccc2Cl)s1)C1CCCCC1"
observable = "% Inhibition"
numeric_readout = 0

[[record]]
molecule = "Cc1cc(C(=O)Nc2nc(-c3cccnc3)cs2)on1"
observable = "% Inhibition"
numeric_readout = 25

[[record]]
molecule = "O=C(Nc1nc2c(s1)CCCC2C(=O)NCCC1=CCCCC1)c1ccccc1 (stereo unspecified)"
observable = "% Inhibition"
numeric_readout = 0

[[record]]
molecule = "Cn1ncc2c(N3CCOCC3)nc(NCCc3c[nH]c4ccccc34)nc21"
observable = "% Inhibition"
numeric_readout = 100

[[record]]
molecule = "Cc1c(Cl)ccc2sc(NC(=O)c3ccc(N(C)C)cc3)nc12"
observable = "% Inhibition"
numeric_readout = 0

[[record]]
molecule = "CC1(C)COc2ccc(NS(=O)(=O)c3cccc4ccccc34)cc2NC1=O"
observable = "% Inhibition"
numeric_readout = 0

[[record]]
molecule = "O=S(=O)(CCCOc1ccc2c(c1)OCO2)NC1CCN(Cc2ccccc2)CC1"
observable = "% Inhibition"
numeric_readout = 16.7


====

# IC50 per entry
assay: WHO-TDR: Cytotoxicity; assay type: toxicity, cell-based; details: human, MRC5 cells
observable: IC50

[[record]]
compound_structure = "O=C(CN1CCC(C(=O)Nc2ccc(Oc3ccccc3)cc2)CC1)Nc1ccc(F)cc1"
result = "> 13.4 µg/mL"

[[record]]
compound_structure = "COc1cccc(-n2ccnc2SCC(=O)Nc2ccccc2C(F)(F)F)c1"
result = "> 12.2 µg/mL"

[[record]]
compound_structure = "Cc1nn(-c2ccccc2)c2[nH]cc(C(=O)Nc3ccc(F)c(Cl)c3)c(=O)c12"
result = "1 µg/mL"

[[record]]
compound_structure = "COc1ccc(CCC(=O)NCCc2ccc(N3CCCC3)cc2)cc1"
result = "> 10.6 µg/mL"

[[record]]
compound_structure = "CCOC(=O)c1c(NC(=O)c2cccc(C(F)(F)F)c2)sc2c1CCN(C)C2"
result = "> 13.5 µg/mL"

[[record]]
compound_structure = "Cc1nc2scc(-c3cccc(NC(=O)NC4CCCCC4)c3)n2c(=O)c1C"
result = "> 11.9 µg/mL"

[[record]]
compound_structure = "CSc1cccc2sc(N3CCN(C(=O)c4ccccc4)CC3)nc12"
result = "> 11.1 µg/mL"

[[record]]
compound_structure = "CN(C)CCCN(C(=O)CCSc1ccccc1)c1nc2cc3c(cc2s1)OCO3"
result = "3.54 µg/mL"

[[record]]
compound_structure = "O=C(NCCNc1ccc(Nc2ccncc2)nn1)Nc1ccc(Cl)cc1"
result = "> 11.5 µg/mL"

[[record]]
compound_structure = "COc1ccc(Cl)cc1NC(=O)CSc1ccc(NC(=O)C2CC2)nn1"
result = "> 11.8 µg/mL"

[[record]]
compound_structure = "COc1ccc(-c2nnc(NC(=O)c3ccn(C)n3)o2)cc1OC"
result = "1.41 µg/mL"

[[record]]
compound_structure = "CCCCc1ccc(NC(=O)CSc2nccn2-c2ccccc2)cc1"
result = "> 11 µg/mL"

[[record]]
compound_structure = "CCCN1C(=O)C(C)(C)COc2cc(NS(=O)(=O)Cc3ccc(C)cc3)ccc21"
result = "> 12.5 µg/mL"

[[record]]
compound_structure = "O=C(Nc1nnc(-c2ccc(Br)s2)o1)c1ccno1"
result = "> 10.2 µg/mL"

[[record]]
compound_structure = "O=c1ccc(-c2ccncc2)nn1CCCNS(=O)(=O)c1ccc2c(c1)CCCC2"
result = "> 12.7 µg/mL"

[[record]]
compound_structure = "CN(C)CCCN(C(=O)CCOc1ccccc1)c1nc2cc3c(cc2s1)OCO3"
result = "3.34 µg/mL"

[[record]]
compound_structure = "c1ccc2c(CCNc3ncnc4[nH]ncc34)c[nH]c2c1"
result = "> 8.35 µg/mL"

[[record]]
compound_structure = "CCCC(=O)Nc1nnc(-c2ccc(C)cc2)s1"
result = "> 7.84 µg/mL"

[[record]]
compound_structure = "Cc1cccc(Nc2ccc(NCCNS(=O)(=O)c3ccc(F)cc3)nn2)n1"
result = "> 12.1 µg/mL"

[[record]]
compound_structure = "O=C(Nc1ccncc1)c1cccn(Cc2ccc(F)cc2)c1=O"
result = "2.53 µg/mL"

[[record]]
compound_structure = "CCCCN(C)S(=O)(=O)c1ccc(C(=O)N2CCN(c3nc4c(C)ccc(C)c4s3)CC2)cc1"
result = "> 15 µg/mL"

[[record]]
compound_structure = "COc1ccc(-c2cccc(NC(=O)Nc3ccc(C)cc3)c2)nn1"
result = "> 10 µg/mL"

